Biological target: T1, NOD mouse SIRP-α (mouse (NOD strain))
T1 chain: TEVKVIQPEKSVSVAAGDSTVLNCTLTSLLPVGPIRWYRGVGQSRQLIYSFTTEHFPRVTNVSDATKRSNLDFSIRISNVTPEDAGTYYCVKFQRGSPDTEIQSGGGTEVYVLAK
Assay: SPR, antibody on GLC chip
Measured attribute: Kd

{"Binder": "antibody 136 variant, light chain Mut / heavy chain Mut (antibody, V domains shown) VH: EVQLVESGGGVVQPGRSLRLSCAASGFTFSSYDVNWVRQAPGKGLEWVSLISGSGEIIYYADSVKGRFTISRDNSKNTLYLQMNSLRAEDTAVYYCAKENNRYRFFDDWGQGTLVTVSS VL: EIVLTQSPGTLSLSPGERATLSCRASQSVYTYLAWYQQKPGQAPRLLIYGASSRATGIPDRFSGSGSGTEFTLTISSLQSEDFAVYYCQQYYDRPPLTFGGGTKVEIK", "Measured attribute": "Kd", "Value reported": "5.21 nM"}
{"Binder": "antibody 136 variant, light chain Mut_I2T / heavy chain Mut_V34M (antibody, V domains shown) VH: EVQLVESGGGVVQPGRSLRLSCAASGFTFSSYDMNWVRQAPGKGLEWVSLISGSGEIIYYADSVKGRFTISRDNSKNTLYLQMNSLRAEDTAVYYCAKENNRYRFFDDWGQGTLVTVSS VL: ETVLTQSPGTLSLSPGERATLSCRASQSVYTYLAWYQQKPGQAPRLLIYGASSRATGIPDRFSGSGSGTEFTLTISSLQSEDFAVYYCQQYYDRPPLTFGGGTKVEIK", "Measured attribute": "Kd", "Value reported": "0.596 nM"}
